# Tested on: NCI-H522 lung
# protocol-notes: NCI tumour cell line growth inhibition, 48 h
quantity: TGI

Fill blank: measured TGI of the compound "O=c1[nH]nc(Cc2ccccc2)n1Nc1ccccc1" is ____. > 100 µM

Given "c1cc2c(c(-c3c4ccccc4nc4ccccc34)c1)CC1(CC2)OCCO1" , state its recorded TGI. > 100 µM

So what's the measured TGI for this one? "Cc1ccc(NC(=O)/C(=N\Nc2ccc([N+](=O)[O-])cc2[N+](=O)[O-])C2C(=O)NC(=O)NC2=O)cc1" > 100 µM

====

# System: HCC-2998 colon
# protocol-notes: NCI tumour cell line growth inhibition, 48 h
Given measured TGI, output 1 (yes) if it is greater than or equal to 30 µM and 0 (no) if not.

Is TGI for CSC1=C(c2ccc(Cl)cc2)SC(N2CCCCC2)N1c1ccc([N+](=O)[O-])cc1 (stereo unspecified) at or above 30 µM? 1 (yes)

Is TGI at least 30 µM? Consider "CCC(CC)n1c(C)nc2c1C(=O)c1ccccc1C2=O" 1 (yes)

# bool: TGI of CC(C)C1CC(O)O[C@@H]([C@@H](C)[C@H]2CC(=O)[C@@H]3[C@@H]4[C@@H](O)[C@H](O)[C@H]5[C@@H](O)[C@H](O)CC[C@]5(C)[C@H]4CC[C@]23C)C1 (stereo partly specified) >= 30 µM 1 (yes)

Could you tell me if the measured TGI of CC(=O)OC1c2ccccc2CCCCCCC12OCCO2 (stereo unspecified) reaches 30 µM or more? 1 (yes)

Please indicate if the recorded TGI for "NCc1ccc(C(=O)O)cc1" meets or exceeds 30 µM. 1 (yes)

# bool: TGI of "O=C(O)c1cc(=O)c2[nH]c3ccccc3c2s1" >= 30 µM 1 (yes)

Could you verify whether the entry "CCCCCCCCCCCCCC(=O)CBr" shows TGI of no less than 30 µM? 1 (yes)

Check the entry COc1ccc(NC(=O)/C(CC2=Nc3ccc([N+](=O)[O-])cc3NC2O)=N\NC(=O)C[N+](C)(C)C)c(OC)c1 (stereo unspecified) : does TGI equal or exceed 30 µM? 1 (yes)

Quick check: does "C[C@@H]1CN(CC(=O)N2CC(C)(C)c3nc(CO)c(Cc4ccc(F)cc4)cc32)[C@@H](CN2CCOC[C@H]2C)CN1" have TGI greater than or equal to 30 µM? 1 (yes)

For this compound, is measured TGI 30 µM or higher? "c1ccc(CSc2nc(N3CCOCC3)c3cn[nH]c3n2)cc1" 1 (yes)

Does COc1cc2c(cc1OC)CC(N=[N+]=[N-])c1cc(OC)c(OC)cc1/C=C\2 (stereo unspecified) have a reported TGI of at least 30 µM? 1 (yes)

Would you say "CSc1ccc(/C=C2\N=C(c3ccccc3)N(c3nc4ccc(Sc5ccccc5)cc4[nH]3)C2=O)cc1" shows TGI at minimum 30 µM? 1 (yes)

Would you say "CCOC(=O)/C=C(\C)c1ccc(OC)cc1" shows TGI at minimum 30 µM? 1 (yes)

Does the compound CC(CNC(Cc1ccccc1)c1ccccc1)NC(Cc1ccccc1)c1ccccc1 (stereo unspecified) have recorded TGI that is 30 µM or more? 0 (no)

Reported TGI at or above 30 µM? "CC(C)(C)c1ccc(S(=O)(=O)N[C@H]2CC[C@H]3[C@@H]4CCc5cc(OS(=O)(=O)O)ccc5[C@H]4CC[C@]23C)cc1" 0 (no)

# bool: TGI of "CCc1cc(O)c(Cl)c(C)c1Cl" >= 30 µM 1 (yes)

Given the entry "COc1ccc(-c2cc(N3CCN(c4ccccc4)CC3)c(C#N)c(=O)o2)cc1" , answer whether its TGI meets or surpasses 30 µM. 1 (yes)

Reported TGI reaches at least 30 µM for "COc1ccc(-c2cncn2-c2ccc(OC)cc2)cc1" ? 1 (yes)

Exam item: decide whether the reported TGI for "C=CC[C@H](C)CCC(=O)N1[C@H]2CC3CC[C@@]2(CS1(=O)=O)C3(C)C" is at least 30 µM. 1 (yes)

Decide: is the reported value of TGI for "OCCCCCCOc1ccc(-c2cc(-c3ccccn3)nc(-c3ccccn3)c2)cc1" equal to or greater than 30 µM? 0 (no)

Does CC12Cc3cc4c(cc3C1(c1ccc([N+](=O)[O-])cc1)OCCO2)OCO4 (stereo unspecified) have a reported TGI of at least 30 µM? 1 (yes)

Reported TGI reaches at least 30 µM for CCOC(=O)CCC(NC(=O)c1ccc(N2CCN(c3c(C)nc(N)nc3N)CC2)cc1)C(=O)OCC (stereo unspecified) ? 1 (yes)

Test whether the compound CC(C)(Br)C1(O)CCCN1C(=O)c1ccccc1 (stereo unspecified) records TGI of 30 µM or higher. 1 (yes)

Does the compound Clc1ccc(C2NN=C3c4ccccc4OCC32)cc1 (stereo unspecified) have recorded TGI that is 30 µM or more? 0 (no)

State whether the measured TGI reaches 30 µM, counting equality as reaching it, for "O=C(CCl)N1c2ccccc2Sc2c1ccc1ccccc21" 0 (no)

# bool: TGI of "Cc1cn(Cc2ccccc2CCl)c(=O)[nH]c1=O" >= 30 µM 0 (no)

Dear colleague, could you confirm whether "Cc1nc2c(sc3nc4ccccc4n32)c(=O)[nH]1" has TGI at or above 30 µM? 1 (yes)

Form field: TGI at least 30 µM? Entry: CCC(CCCC[C@@H]1CC[C@H]2CC(=O)C[C@@H]12)OC (stereo partly specified) 1 (yes)

Answer whether TGI of "COc1ccc(-c2cn(-c3ccccc3)c(-c3ccccc3)n2)cc1OC" is greater than or equal to 30 µM. 0 (no)

Tell me whether TGI is at least 30 µM here: "C=CC[C@H]1[C@H](O[Si](C)(C)C(C)(C)C)C=CC(=O)[C@@H]1CC(=O)N(Cc1ccccc1)Cc1ccccc1" 1 (yes)

Decide: TGI of "CN(C)c1ccc2cc(-c3ccccc3F)c(N)nc2c1" >= 30 µM? 0 (no)

Does the reported TGI for "C1=C\CCCCN2C[C@H]3CCCC/C=C\CCCCN4CC[C@@H]([C@H](CCCCCC/1)C4)[C@H](C3)C2" fall at or above the 30 µM mark? 0 (no)

Could you please find out whether "CN(CCOc1ccc(C#N)cc1)CCOc1ccc(C#N)cc1" has TGI that meets 30 µM or exceeds it? 1 (yes)

Decide: is the reported value of TGI for "CC(=O)[O-].CC(=O)[O-].[NH2-].[Pt+2].c1ccc2cnccc2c1" equal to or greater than 30 µM? 1 (yes)

Answer whether TGI of "CC(C)CC1=[N+]=C(NC#N)N=C(CCC(=O)Nc2ccccc2[N+](=O)[O-])C1" is greater than or equal to 30 µM. 1 (yes)

Test whether the compound N#CC1(C#N)NC(c2ccsc2)C(C#N)(C#N)NC1c1ccsc1 (stereo unspecified) records TGI of 30 µM or higher. 1 (yes)

Item "Cc1ccc(N=C2C(=O)C3=C(OC(C)(C)CC3)c3ccccc32)cc1" with TGI of 30 µM or above? 0 (no)

Item CC1(C)Oc2ccc3c(=O)cc(-c4ccc(F)cc4)oc3c2C1C(=O)O (stereo unspecified) with TGI of 30 µM or above? 1 (yes)

Please indicate if the recorded TGI for CN(C)CCCN1CCc2c([nH]c3ccccc23)C1c1cccnc1 (stereo unspecified) meets or exceeds 30 µM. 1 (yes)

Hi, just wondering whether "N#Cc1ccc(OCc2nc3cc(C(F)(F)F)ccc3nc2-c2ccccc2)cc1" shows TGI of 30 µM or higher. 1 (yes)

Could you verify whether the entry "CC[n+]1c(/C=C/c2ccc(N(CCCl)CCCl)cc2)ccc2cc(NC(=O)/C=C/c3ccccc3)ccc21" shows TGI of no less than 30 µM? 0 (no)

====

# Test system: SNB-75 CNS
# protocol-notes: NCI tumour cell line growth inhibition, 48 h
Assign class by TGI: not lower than 2 µM means Fulfilled; lower than 2 µM means Not fulfilled.

Check the entry CCCCOC(=O)C(O)Cc1ccoc1 (centres undefined) : does TGI equal or exceed 2 µM? Fulfilled

Could you verify whether the entry "CC(=O)Oc1ccc(O)c(O)c1C/C=C(\C)CC/C=C(\C)CC/C=C(\C)CCC=C(C)C" shows TGI of no less than 2 µM? Not fulfilled

Could you tell me if the measured TGI of CC(=O)Nc1ccc2c3c(cc(O)c2c1)N(C(=O)CCCCC(=O)Nc1ccc2c4c(cc(O)c2c1)N(C(=O)OC(C)(C)C)CC4CCl)CC3CCl (centres undefined) reaches 2 µM or more? Fulfilled

Please indicate if the recorded TGI for CC1OC2CC(=O)OC2C2=C1C(=O)c1c(O)c3c(c(O)c1C2=O)C1CC(O)C3(O)C(C)O1 (centres undefined) meets or exceeds 2 µM. Fulfilled

Textbook exercise: given the entry "Cc1cccc(NC(=S)N=Nc2c(O)[nH]c3ccccc23)c1" , state whether its TGI is greater than or equal to 2 µM. Fulfilled

Identify whether the reported TGI of the following compound is 2 µM or greater: "CC[n+]1c(/C=C/c2ccc(N(CCCl)CCCl)cc2)ccc2cc(NC(=O)/C=C/c3ccccc3)ccc21" Not fulfilled

Form field: TGI at least 2 µM? Entry: CC[C@H]1OC([C@H](O)C/C=C\C#C[Si](C)(C)C)C/C=C\C[C@H]1O[Si](C)(C)C(C)(C)C (some centres undefined) Fulfilled

Please check the record "COc1cc(/C=C/C(=O)c2sc(Nc3ccccc3)nc2C)ccc1O" and state if its TGI is at or above 2 µM. Fulfilled

Decide: is the reported value of TGI for CC(C)C1OC(=O)/C=C/C=C/C=C/C=C/C=C/CC(O)CC(O)CC(O)CC(O)CC(O)CC(O)CC(O)CC(O)/C=C/C1C (centres undefined) equal to or greater than 2 µM? Fulfilled
